Numbers sourced from ChEMBL document CHEMBL5291721.

Give measured AC50 for each item. Keep answers brief.
System: Alpha-1A adrenergic receptor (Homo sapiens, UniProt P35348); also: assay procedure not described here
Sequence (P35348 whole entry): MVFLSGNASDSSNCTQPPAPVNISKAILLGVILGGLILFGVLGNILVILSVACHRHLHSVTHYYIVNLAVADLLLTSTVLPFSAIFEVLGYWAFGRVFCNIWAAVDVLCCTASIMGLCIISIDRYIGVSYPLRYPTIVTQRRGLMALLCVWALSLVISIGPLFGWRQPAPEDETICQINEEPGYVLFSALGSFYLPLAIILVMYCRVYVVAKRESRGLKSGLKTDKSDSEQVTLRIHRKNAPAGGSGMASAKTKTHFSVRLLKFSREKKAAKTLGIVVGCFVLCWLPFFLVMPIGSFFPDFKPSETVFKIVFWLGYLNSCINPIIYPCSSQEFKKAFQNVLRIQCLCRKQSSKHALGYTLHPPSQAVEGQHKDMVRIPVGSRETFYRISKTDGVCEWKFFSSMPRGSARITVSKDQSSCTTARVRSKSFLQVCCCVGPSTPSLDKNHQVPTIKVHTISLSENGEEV
Format: functional, cell-based

Query: Could you share which AC50 value was measured for O=C(Oc1ccc2c(c1)CCCN2C(=O)C(Cl)Cl)c1ccco1 [QUINFAMIDE] ?
Reply: 24.6 µM

Query: Can you check CN(C)S(=O)(=O)c1ccc2c(c1)N(CCCN1CCC(CCO)CC1)c1ccccc1S2 next?
Reply: 0.0032 µM

Query: Request: NNc1nnc(NN)c2ccccc12 [DIHYDRALAZINE]
Reply: > 30 µM

Query: Likewise for CC(C)(C)N1CCC(c2ccccc2)(c2ccccc2)CC1 ?
Reply: > 30 µM

Query: Item: NC1CCN(c2c(F)cc3c(=O)c(C(=O)O)cn(C4CC4)c3c2Cl)C1 (stereo not given)
Reply: > 30 µM

Query: Item: OC[C@@H](O)[C@H](O)[C@@H](O)CO
Reply: > 30 µM

Query: CC(C)(S)[C@@H](N)C(=O)O , same question.
Reply: > 30 µM

Query: Would you kindly repeat that for CCOc1ccc(Cc2cc([C@@H]3O[C@H](CO)[C@@H](O)[C@H](O)[C@H]3O)ccc2Cl)cc1 ?
Reply: > 30 µM

Query: Another: CCN(CC)CCc1nc(-c2ccccc2)no1
Reply: > 30 µM

Query: CCC(CC)(CC(=O)Nc1cccc(/C=C/c2nc(C3CCC3)cs2)c1)C(=O)O ?
Reply: > 3 µM

----------
Here's what we have: AC50 numbers for Histamine H3 receptor (Homo sapiens).

Query: Notebook entry, Histamine H3 receptor (Homo sapiens) assay: AC50 of CC[C@H]1[C@@H](O)[C@@H]2[C@H](CC[C@]3(C)[C@@H]([C@H](C)CCC(=O)O)CC[C@@H]23)[C@@]2(C)CC[C@@H](O)C[C@@H]12 [OBETICHOLIC ACID] = ?
Reply: > 30 µM

Query: Input C#C[C@]1(O)CC[C@H]2[C@@H]3CCC4=Cc5oncc5C[C@]4(C)[C@H]3CC[C@@]21C [DANAZOL]
Reply: > 10 µM

Query: Proceed to CN1C(C(=O)Nc2ccccn2)=C(O)c2sc(Cl)cc2S1(=O)=O [LORNOXICAM]
Reply: > 10 µM

Query: How about this compound: CCCCCNC(=N)N/N=C/c1c[nH]c2ccc(OC)cc12 [TEGASEROD]
Reply: 27.2 µM

Query: Also, CCc1c(Cl)c(O)c(Cl)c(O)c1C(=O)O[C@H]1[C@H](O)[C@H](OC)[C@H](OC/C2=C\C=C\C[C@H](O)/C(C)=C/[C@H](CC)[C@@H](O[C@@H]3OC(C)(C)[C@@H](OC(=O)C(C)C)[C@H](O)[C@@H]3O)/C(C)=C/C(C)=C/C[C@@H]([C@@H](C)O)OC2=O)O[C@@H]1C [FIDAXOMICIN] please.
Reply: > 10 µM

Query: Try O=C(NCCNCC(O)COc1ccc(O)cc1)N1CCOCC1 (configuration not stated) [XAMOTEROL] next.
Reply: > 30 µM

Query: Try the compound Fc1ccc(C(c2ccccc2)(c2ccccc2F)n2ccnc2)cc1 (configuration not stated) [FLUTRIMAZOLE]
Reply: > 30 µM

----------
System: D(1A) dopamine receptor (Homo sapiens, UniProt P21728); also: assay procedure not described here
Sequence (P21728 whole entry): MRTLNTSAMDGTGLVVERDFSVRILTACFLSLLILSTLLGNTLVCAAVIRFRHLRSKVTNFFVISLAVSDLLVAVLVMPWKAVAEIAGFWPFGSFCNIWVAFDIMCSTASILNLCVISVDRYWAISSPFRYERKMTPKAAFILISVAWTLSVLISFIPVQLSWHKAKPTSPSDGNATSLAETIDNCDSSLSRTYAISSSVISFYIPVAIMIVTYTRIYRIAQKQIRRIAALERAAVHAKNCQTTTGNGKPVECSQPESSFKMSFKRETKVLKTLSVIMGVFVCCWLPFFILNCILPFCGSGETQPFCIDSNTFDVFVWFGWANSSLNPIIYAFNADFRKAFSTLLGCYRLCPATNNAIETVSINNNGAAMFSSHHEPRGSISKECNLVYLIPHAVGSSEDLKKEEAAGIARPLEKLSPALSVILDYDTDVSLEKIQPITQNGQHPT
Format: functional, cell-based
Kindly state AC50 for each of the entries shown.

Query: API: value(readout=AC50, system=D(1A) dopamine receptor (Homo sapiens, UniProt P21728)) for record Cc1cc(C)c(NC(=O)CN(CC(=O)O)CC(=O)O)c(C)c1Br; also: assay procedure not described here
Reply: > 30 µM

Query: Now the compound C[C@H]1COc2c(C3(N)CC3)c(F)cc3c(=O)c(C(=O)O)cn1c23
Reply: > 10 µM

Query: Another compound: CNS(=O)(=O)Cc1ccc2[nH]cc(CCN(C)C)c2c1
Reply: > 30 µM

Query: Then this compound: CC1(C)O[C@@H]2C[C@H]3[C@@H]4CCC5=CC(=O)C=C[C@]5(C)[C@H]4[C@@H](O)C[C@]3(C)[C@]2(C(=O)CO)O1 [DESONIDE]
Reply: > 10 µM
